# Test System: HIPK3 (Homo sapiens)
# Sequence (Q9H422 whole entry, species assumed): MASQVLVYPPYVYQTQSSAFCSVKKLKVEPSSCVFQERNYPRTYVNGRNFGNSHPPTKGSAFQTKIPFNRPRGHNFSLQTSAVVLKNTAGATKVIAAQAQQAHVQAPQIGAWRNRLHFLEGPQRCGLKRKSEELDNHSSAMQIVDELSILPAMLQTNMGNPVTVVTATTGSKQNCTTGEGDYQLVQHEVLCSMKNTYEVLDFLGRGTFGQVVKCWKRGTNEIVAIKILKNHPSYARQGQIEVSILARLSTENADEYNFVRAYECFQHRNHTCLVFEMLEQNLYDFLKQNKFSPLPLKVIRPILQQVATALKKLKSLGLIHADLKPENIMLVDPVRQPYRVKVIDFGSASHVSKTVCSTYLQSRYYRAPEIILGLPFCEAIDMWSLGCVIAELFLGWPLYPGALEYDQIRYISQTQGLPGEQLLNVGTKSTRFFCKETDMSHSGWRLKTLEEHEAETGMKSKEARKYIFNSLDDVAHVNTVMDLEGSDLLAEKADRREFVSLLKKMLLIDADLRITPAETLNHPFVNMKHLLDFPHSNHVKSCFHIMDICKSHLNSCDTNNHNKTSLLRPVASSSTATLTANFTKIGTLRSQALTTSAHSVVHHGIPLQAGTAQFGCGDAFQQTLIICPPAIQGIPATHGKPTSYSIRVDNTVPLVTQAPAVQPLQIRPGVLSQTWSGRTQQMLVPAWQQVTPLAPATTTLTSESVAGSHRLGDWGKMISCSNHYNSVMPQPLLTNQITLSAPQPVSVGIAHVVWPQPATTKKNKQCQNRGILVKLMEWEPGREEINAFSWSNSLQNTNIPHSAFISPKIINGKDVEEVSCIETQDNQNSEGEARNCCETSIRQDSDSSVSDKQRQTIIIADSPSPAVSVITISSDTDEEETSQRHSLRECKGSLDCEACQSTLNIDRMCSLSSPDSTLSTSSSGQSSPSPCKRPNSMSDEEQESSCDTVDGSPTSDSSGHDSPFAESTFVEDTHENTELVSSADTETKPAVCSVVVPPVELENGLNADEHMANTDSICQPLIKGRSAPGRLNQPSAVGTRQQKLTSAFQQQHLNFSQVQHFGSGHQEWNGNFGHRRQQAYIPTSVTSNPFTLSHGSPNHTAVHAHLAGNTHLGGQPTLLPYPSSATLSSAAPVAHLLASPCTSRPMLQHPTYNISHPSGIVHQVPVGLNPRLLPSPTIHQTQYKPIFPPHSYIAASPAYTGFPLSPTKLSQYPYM
# Protocol Details: Kinase profiling HIPK3
# Format: biochemical
# Experimental Conditions: 100 micromolar inhibitor concentration; 100 is no change
Category key, based on recorded residual kinase activity, HIPK3: bottom range: < 80; center range: ≥ 80 and < 90; top range: ≥ 90

Quick check: band for `O=C(Nc1nc2ccc(O)cc2s1)c1ccccc1`
bottom range

Quick check: band for `O=C(Nc1nc2ccc(O)cc2s1)c1cccnc1`
bottom range

Quick check: band for `O=C(Nc1nc2cc(O)ccc2s1)c1cccnc1`
top range

Quick check: band for `O=C(Nc1nc2ccc(O)cc2s1)c1ccccn1`
center range

Quick check: band for `O=C(Nc1nc2cc(O)ccc2s1)c1ccncc1`
top range

----------
# Test System: CHK1 (Homo sapiens, UniProt O14757)
# Sequence (O14757 1-476): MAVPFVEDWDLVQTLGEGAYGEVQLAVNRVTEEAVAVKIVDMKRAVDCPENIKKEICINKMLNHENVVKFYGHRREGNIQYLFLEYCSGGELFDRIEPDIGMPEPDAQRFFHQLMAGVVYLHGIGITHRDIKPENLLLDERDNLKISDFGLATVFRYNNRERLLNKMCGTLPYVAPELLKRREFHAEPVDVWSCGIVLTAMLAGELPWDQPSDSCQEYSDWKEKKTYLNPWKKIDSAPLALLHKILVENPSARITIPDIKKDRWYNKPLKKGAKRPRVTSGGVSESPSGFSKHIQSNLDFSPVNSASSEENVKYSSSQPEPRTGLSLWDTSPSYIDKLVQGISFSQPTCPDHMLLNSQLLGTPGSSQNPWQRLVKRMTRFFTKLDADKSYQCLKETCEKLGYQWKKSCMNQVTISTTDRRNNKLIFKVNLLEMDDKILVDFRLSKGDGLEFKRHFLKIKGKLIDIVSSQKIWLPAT
# Protocol Details: Kinase profiling CHK1
# Format: biochemical
# Experimental Conditions: 100 micromolar inhibitor concentration; 100 is no change; read-out: residual kinase activity, CHK1
Metric Name: remaining activity at 100 µM (%)
Form entry: value (%) — number only.

Fill in the blank: the reported remaining activity at 100 µM of `CC(=O)Nc1nc2ccc(C(F)(F)F)cc2s1` is ____.
97

Fill in the blank: the reported remaining activity at 100 µM of `CC(=O)Nc1nc2cc(C(F)(F)F)ccc2s1` is ____.
110

Fill in the blank: the reported remaining activity at 100 µM of `CC(=O)Nc1nc2ccc(C#N)cc2s1` is ____.
96

Fill in the blank: the reported remaining activity at 100 µM of `COc1ccc2sc(NC(C)=O)nc2c1` is ____.
110

Fill in the blank: the reported remaining activity at 100 µM of `CC(=O)Nc1nc2cc(F)ccc2s1` is ____.
103

Fill in the blank: the reported remaining activity at 100 µM of `CC(=O)Nc1nc2ccc(O)cc2s1` is ____.
82

----------
# Test System: TESK1 (Homo sapiens, UniProt Q15569)
# Sequence (Q15569 whole entry, species assumed): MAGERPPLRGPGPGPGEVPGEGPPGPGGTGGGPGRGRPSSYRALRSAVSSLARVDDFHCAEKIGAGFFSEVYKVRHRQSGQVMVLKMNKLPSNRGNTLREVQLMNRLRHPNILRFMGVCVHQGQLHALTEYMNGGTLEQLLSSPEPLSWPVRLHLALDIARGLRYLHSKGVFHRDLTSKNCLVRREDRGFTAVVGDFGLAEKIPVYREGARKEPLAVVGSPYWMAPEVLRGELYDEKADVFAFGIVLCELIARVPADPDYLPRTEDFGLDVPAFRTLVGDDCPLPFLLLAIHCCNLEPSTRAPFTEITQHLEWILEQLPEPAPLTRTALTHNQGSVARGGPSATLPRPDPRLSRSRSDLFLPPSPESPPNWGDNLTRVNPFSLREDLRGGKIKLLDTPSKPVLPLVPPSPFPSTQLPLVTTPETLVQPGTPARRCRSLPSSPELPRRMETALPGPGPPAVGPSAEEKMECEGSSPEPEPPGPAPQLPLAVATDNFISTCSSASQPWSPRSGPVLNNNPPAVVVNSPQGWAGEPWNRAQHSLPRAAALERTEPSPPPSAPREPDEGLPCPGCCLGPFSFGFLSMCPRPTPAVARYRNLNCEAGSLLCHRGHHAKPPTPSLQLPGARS
# Protocol Details: Kinase profiling TESK1
# Assay type: biochemical
# Experimental Conditions: 100 micromolar inhibitor concentration; 100 is no change; read-out: residual kinase activity, TESK1
Quick rule for you: remaining activity at 100 µM under 90% gets 1, anything else gets -1.

Record `CC(=O)Nc1nc2cc(C(F)(F)F)ccc2s1` : is its remaining activity at 100 µM strictly below 90%?
-1

Record `COc1ccc2sc(NC(C)=O)nc2c1` : is its remaining activity at 100 µM strictly below 90%?
-1

Record `CC(=O)Nc1nc2ccc(O)cc2s1` : is its remaining activity at 100 µM strictly below 90%?
1

Record `CC(=O)Nc1nc2cc(F)ccc2s1` : is its remaining activity at 100 µM strictly below 90%?
-1

Record `CC(=O)Nc1nc2ccc(C(F)(F)F)cc2s1` : is its remaining activity at 100 µM strictly below 90%?
-1

----------
# Test System: UniProt Q15418
# Sequence (Q15418 whole entry, species assumed): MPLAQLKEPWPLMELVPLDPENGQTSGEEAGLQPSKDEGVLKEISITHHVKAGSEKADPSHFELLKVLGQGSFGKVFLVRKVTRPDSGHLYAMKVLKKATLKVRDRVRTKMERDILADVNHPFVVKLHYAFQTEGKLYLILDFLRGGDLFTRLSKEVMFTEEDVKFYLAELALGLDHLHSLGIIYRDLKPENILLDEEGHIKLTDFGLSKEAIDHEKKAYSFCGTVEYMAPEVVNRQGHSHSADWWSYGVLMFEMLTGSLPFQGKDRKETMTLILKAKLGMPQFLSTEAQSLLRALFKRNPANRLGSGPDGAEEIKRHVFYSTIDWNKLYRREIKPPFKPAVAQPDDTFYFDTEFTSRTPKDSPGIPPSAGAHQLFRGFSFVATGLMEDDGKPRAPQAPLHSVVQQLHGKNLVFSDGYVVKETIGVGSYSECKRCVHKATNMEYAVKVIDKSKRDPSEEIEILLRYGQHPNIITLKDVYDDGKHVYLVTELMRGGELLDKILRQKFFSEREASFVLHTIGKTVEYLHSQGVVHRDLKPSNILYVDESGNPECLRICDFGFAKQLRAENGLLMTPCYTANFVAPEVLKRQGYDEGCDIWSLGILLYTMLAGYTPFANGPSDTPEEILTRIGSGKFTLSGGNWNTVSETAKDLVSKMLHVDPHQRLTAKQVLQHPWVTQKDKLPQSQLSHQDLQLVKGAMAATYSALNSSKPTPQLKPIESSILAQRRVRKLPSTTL
# Protocol Details: Kinase profiling RSK1
# Type: biochemical
# Experimental Conditions: 100 micromolar inhibitor concentration; 100 is no change; read-out: residual kinase activity, RSK1
Would you mind telling me the reported remaining activity at 100 µM of each entry?
Form entry: value (%) — number only.

Fill in the blank: the reported remaining activity at 100 µM of CC(=O)Nc1nc2ccc([N+](=O)[O-])cc2s1 [Compound 13-10] is ____.
89

Fill in the blank: the reported remaining activity at 100 µM of CC(=O)Nc1nc2cc(F)ccc2s1 [Compound 03-77] is ____.
72

Fill in the blank: the reported remaining activity at 100 µM of CC(=O)Nc1nc2ccc(C#N)cc2s1 [Compound 01-94] is ____.
51

Fill in the blank: the reported remaining activity at 100 µM of COc1ccc2sc(NC(C)=O)nc2c1 [Compound 03-21] is ____.
93

Fill in the blank: the reported remaining activity at 100 µM of CC(=O)Nc1nc2ccc(O)cc2s1 [Compound 01-71] is ____.
25

Fill in the blank: the reported remaining activity at 100 µM of CC(=O)Nc1nc2cc(C(F)(F)F)ccc2s1 [Compound 03-73] is ____.
89

Fill in the blank: the reported remaining activity at 100 µM of CC(=O)Nc1nc2ccc(C(F)(F)F)cc2s1 [Compound 01-90] is ____.
74

----------
# Test System: YES1 (Homo sapiens)
# Sequence (P07947 whole entry, species assumed): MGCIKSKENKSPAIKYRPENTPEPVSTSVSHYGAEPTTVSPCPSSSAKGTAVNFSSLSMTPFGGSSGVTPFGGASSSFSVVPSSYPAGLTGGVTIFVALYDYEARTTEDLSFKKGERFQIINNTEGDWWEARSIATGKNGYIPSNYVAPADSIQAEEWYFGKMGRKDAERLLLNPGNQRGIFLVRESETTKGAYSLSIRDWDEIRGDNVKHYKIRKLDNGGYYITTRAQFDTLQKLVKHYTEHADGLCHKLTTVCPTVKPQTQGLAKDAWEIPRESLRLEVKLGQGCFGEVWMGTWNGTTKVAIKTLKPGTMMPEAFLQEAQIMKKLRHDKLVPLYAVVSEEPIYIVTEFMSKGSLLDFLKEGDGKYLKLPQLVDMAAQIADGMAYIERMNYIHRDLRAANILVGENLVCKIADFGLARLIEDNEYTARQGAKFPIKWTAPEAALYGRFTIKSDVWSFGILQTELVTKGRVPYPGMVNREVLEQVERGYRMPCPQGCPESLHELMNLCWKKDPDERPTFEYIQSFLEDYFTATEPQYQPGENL
# Protocol Details: Kinase profiling YES1
# Type: biochemical
# Experimental Conditions: 100 micromolar inhibitor concentration; 100 is no change; read-out: residual kinase activity, YES1
Would you mind telling me the reported remaining activity at 100 µM of each entry?
Form entry: value (%) — number only.

Item `CC(=O)Nc1nc2cc(C(F)(F)F)ccc2s1` with YES1 (Homo sapiens) - remaining activity at 100 µM?
108

Item `CC(=O)Nc1nc2ccc(C#N)cc2s1` with YES1 (Homo sapiens) - remaining activity at 100 µM?
86

Item `COc1ccc2sc(NC(C)=O)nc2c1` with YES1 (Homo sapiens) - remaining activity at 100 µM?
93

Item `CC(=O)Nc1nc2ccc(C(F)(F)F)cc2s1` with YES1 (Homo sapiens) - remaining activity at 100 µM?
57

Item `CC(=O)Nc1nc2cc(F)ccc2s1` with YES1 (Homo sapiens) - remaining activity at 100 µM?
85

Item `CC(=O)Nc1nc2ccc(O)cc2s1` with YES1 (Homo sapiens) - remaining activity at 100 µM?
59

----------
# Test System: DYRK1A (Homo sapiens)
# Protocol Details: DYRK 1A assay (kinase profiling)
# Format: biochemical
# Experimental Conditions: 100 micromolar inhibitor concentration; 100 is no change; read-out: residual kinase activity, DYRK1A
Would you mind telling me the reported remaining activity at 100 µM of each entry?
Form entry: value (%) — number only.

Item CC(=O)Nc1nc2ccc(C#N)cc2s1 [Compound 01-94] with DYRK1A (Homo sapiens) - remaining activity at 100 µM?
9

Item CC(=O)Nc1nc2ccc(O)cc2s1 [Compound 01-71] with DYRK1A (Homo sapiens) - remaining activity at 100 µM?
20

Item CC(=O)Nc1nc2cc(F)ccc2s1 [Compound 03-77] with DYRK1A (Homo sapiens) - remaining activity at 100 µM?
7

Item COc1ccc2sc(NC(C)=O)nc2c1 [Compound 03-21] with DYRK1A (Homo sapiens) - remaining activity at 100 µM?
2

Item CC(=O)Nc1nc2cc(C(F)(F)F)ccc2s1 [Compound 03-73] with DYRK1A (Homo sapiens) - remaining activity at 100 µM?
22

Item CC(=O)Nc1nc2ccc(C(F)(F)F)cc2s1 [Compound 01-90] with DYRK1A (Homo sapiens) - remaining activity at 100 µM?
8

Item CC(=O)Nc1nc2ccc([N+](=O)[O-])cc2s1 [Compound 13-10] with DYRK1A (Homo sapiens) - remaining activity at 100 µM?
6

----------
# Test System: PKA (Homo sapiens, UniProt P17612)
# Protocol Details: Kinase profiling PKA
# Format: biochemical
# Experimental Conditions: 100 micromolar inhibitor concentration; 100 is no change; read-out: residual kinase activity, PKA
Would you mind telling me the reported remaining activity at 100 µM of each entry?
Form entry: value (%) — number only.

Fill in the blank: the reported remaining activity at 100 µM of `CC(=O)Nc1nc2ccc(C#N)cc2s1` is ____.
93

Fill in the blank: the reported remaining activity at 100 µM of `CC(=O)Nc1nc2cc(F)ccc2s1` is ____.
95

Fill in the blank: the reported remaining activity at 100 µM of `CC(=O)Nc1nc2cc(C(F)(F)F)ccc2s1` is ____.
124

Fill in the blank: the reported remaining activity at 100 µM of `CC(=O)Nc1nc2ccc(O)cc2s1` is ____.
70

Fill in the blank: the reported remaining activity at 100 µM of `CC(=O)Nc1nc2ccc([N+](=O)[O-])cc2s1` is ____.
99

Fill in the blank: the reported remaining activity at 100 µM of `CC(=O)Nc1nc2ccc(C(F)(F)F)cc2s1` is ____.
87

Fill in the blank: the reported remaining activity at 100 µM of `COc1ccc2sc(NC(C)=O)nc2c1` is ____.
11

These entries and their values trace back to patent US10231954B2.
